Entry source: patent US12534477B2

compounds and their reported clearance
Assay: Pharmacokinetic evaluation in SD rats
Assay type: in vivo
Settings: rat, plasma, 1 mg/kg, IV 1 mpk, read-out: Clearance rate

# example entries with known answers
C[C@H]1CCN1c1nc(N2C[C@@H]3[C@@H](CC(=O)O)[C@@H]3C2)c2ccsc2n1 = 1.21 mL/min/kg
C[C@H]1CCN1c1nc(Nc2ccc(CC(=O)O)cc2)c2ccsc2n1 = 1.05 mL/min/kg
C[C@H]1CCN1c1nc(N2C[C@@H]3[C@@H](CC(=O)O)[C@@H]3C2)c2ncsc2n1 = 1.04 mL/min/kg
C[C@H]1CCN1c1nc(N2CC3(C[C@@H]3C(=O)O)C2)c2c(n1)C(F)(F)CC2 = 8.13 mL/min/kg

Moving on to another compound below.
Q: Any idea what clearance was measured for "C[C@H]1CCN1c1nc(N2CC3(C[C@H]3C(=O)O)C2)c2c(n1)C(F)(F)CC2" ?
Ans: 5.37 mL/min/kg
